pIC50: −log10 of the molar value.
Compiled literature pIC50, tested on UniProt:Q9Y233.

Illustrative cases are given below, each with its answer.
compound=O=C1c2c(cccc2-c2ccccc2F)CN1CCc1ccc2ccccc2n1 val="6.70 to 7.00"
compound=COc1cn(-c2ccc3c(c2F)C(C)(C)C(=O)N3C)nc(-c2ccnn2-c2cccc(Cl)c2)c1=O val="≥ 8.00"
compound="Cc1sc(-c2cnn(C)c2C(=O)NC2CCn3cc(-c4cccc(F)c4)nc3C2)nc1C(F)F (stereo not drawn)" val="> 8.30"

Task item: Bench note: what pIC50 did N#Cc1ccc(-c2cccc3c2C(=O)N(CCc2ccc4ccccc4n2)C3)s1 show?
Reply: > 7.00

Task item: And the next one, COc1cn(-c2ccc3c(c2F)C(C)(C)C(=O)N3CC(F)(F)F)nc(-c2cc(C)nn2-c2ccccc2)c1=O ?
Reply: ≥ 8.00

Task item: Input Cc1nc(CCN2Cc3nccc(N4CCOCC4)c3C2=O)sc1C
Reply: > 7.00

Task item: Cool, now Cc1sc(-c2cnn(C)c2C(=O)Nc2ccn3nc(N4CC[C@H](F)C4)nc3c2)nc1C(F)F
Reply: > 8.30

Task item: Moving on to Cc1cc(-c2cccc3c2C(=O)N(CCc2ccc4ccccc4n2)C3)ccn1
Reply: > 7.00

Task item: Next entry: COc1cn(-c2cncnc2)nc(-c2ccnn2-c2ccccc2)c1=O
Reply: 6.70 to 8.00

###

Consider the following IC50 data for human PDE10A2 (Homo sapiens (Human), UniProt Q9Y233), collected from several reports.

Task item: Which IC50 is reported for this compound? O=C1c2c(-c3cc[nH]n3)ccnc2CN1CCc1ccc2ccccc2n1
Reply: < 100 nM

Task item: Same question, O=C(c1nc2ccccc2s1)N1CC(N2C(=O)C3(CC3)c3cccnc32)C1 this time
Reply: 1.69 nM

Task item: Now try COc1ccc(C)n2nc(CCc3nc(-c4cccs4)cn3CCCC#N)nc12 .
Reply: 1.7 nM

###

Please find below IC50 measurements for human PDE10A2 (Homo sapiens (Human), UniProt Q9Y233), combined from several publications.
// boundary case: IC50 equal to 8 nM maps to 0; strictly smaller maps to 1

Known results for compounds:
compound="CCc1sc(-c2cnn(C)c2C(=O)NC2CCn3nc(-c4ccccc4)nc3C2)nc1C(F)F (centres unmarked)" qualitative_label=1
compound=COc1ncnc(-c2cnn(C)c2C(=O)Nc2cc3nc(-c4ccccc4)nn3cc2F)c1C qualitative_label=1
compound=CC(C)Cn1nc(-c2ccccn2)cc1NC(=O)c1nc(C2CC2)ccc1Nc1cncnc1 qualitative_label=1
compound=CNC(=O)c1ccncc1NC(=O)c1nc(C2CC2)cnc1Nc1cncnc1 qualitative_label=1
compound=Cc1nc2cccnc2n2c(-c3cc(OCC4(C)COC4)ccc3Cl)nnc12 qualitative_label=0
compound=Cc1ccc(Nc2cncnc2)c(C(=O)Nc2ccn(-c3ccncc3)n2)n1 qualitative_label=0
compound=Cn1c(=O)n([C@H]2C[C@H](Nc3nc4ccccc4s3)C2)c2ncccc21 qualitative_label=1
compound=O=c1n(C2CC2)c2nccnc2n1[C@H]1C[C@H](Nc2nc3cc(F)ccc3s2)C1 qualitative_label=1
compound=CNC(=O)c1c(NC(=O)c2nc(C3CC3)cnc2Nc2cnccn2)cnn1C qualitative_label=0

Continue with the compound presented below.
Task item: Say whether its IC50 is strictly beneath 8 nM. Entry: O=C(NC1(c2ccc(C(F)(F)F)cc2)CCCOC1)c1cnn2cc(C3CC3)cnc12 (racemic)
Reply: 0
